Each recorded value in this set is attributed to patent US9751869B2.

- system_name: LXRβ (Homo sapiens)
- Construct: Co-transfection expression plasmids, comprising full-length LXRα (pCMX-h LXRα or LXRβ (pCMX-hLXRβ))
- Sequence (P55055 whole entry): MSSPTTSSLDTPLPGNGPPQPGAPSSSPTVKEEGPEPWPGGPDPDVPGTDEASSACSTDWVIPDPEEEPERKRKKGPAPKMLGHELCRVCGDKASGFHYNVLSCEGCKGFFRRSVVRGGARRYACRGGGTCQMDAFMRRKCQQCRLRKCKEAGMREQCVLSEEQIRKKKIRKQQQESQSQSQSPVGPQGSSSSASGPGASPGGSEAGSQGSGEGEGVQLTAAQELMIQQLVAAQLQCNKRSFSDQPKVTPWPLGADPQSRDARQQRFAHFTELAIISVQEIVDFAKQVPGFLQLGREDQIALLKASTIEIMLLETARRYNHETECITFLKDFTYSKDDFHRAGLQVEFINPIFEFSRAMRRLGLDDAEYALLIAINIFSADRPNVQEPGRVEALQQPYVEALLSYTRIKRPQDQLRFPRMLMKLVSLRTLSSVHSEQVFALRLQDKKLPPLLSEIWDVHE
- Sequence (P19793 whole entry partner): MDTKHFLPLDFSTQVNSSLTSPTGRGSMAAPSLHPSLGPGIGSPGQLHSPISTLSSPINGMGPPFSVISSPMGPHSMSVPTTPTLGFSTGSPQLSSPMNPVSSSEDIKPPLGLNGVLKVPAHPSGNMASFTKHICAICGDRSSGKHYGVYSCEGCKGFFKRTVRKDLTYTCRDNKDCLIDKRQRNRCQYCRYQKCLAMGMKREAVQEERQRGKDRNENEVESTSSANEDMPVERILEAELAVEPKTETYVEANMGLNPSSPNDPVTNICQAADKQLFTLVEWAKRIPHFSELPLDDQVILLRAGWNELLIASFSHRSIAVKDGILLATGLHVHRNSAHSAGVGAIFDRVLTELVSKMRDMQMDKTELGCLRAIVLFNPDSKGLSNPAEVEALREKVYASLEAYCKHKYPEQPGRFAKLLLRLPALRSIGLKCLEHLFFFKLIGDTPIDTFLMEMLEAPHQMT
- protocol: LXR/LXRE co-transfection assay (luciferase reporter) in CV-1 cells, LXRβ
- reported_conditions: CV-1 cells transfected with pCMX-hLXRβ and LXREx1-Tk-Luciferase, 20 hours incubation, read-out: LXRbeta agonism EC50
pEC50: −log10 of the molar value.
Would you please tag the item fulfilled when its pEC50 is 7 or above, and not fulfilled when it is below?

- query_smiles: "Cn1nc(C(F)(F)CO)cc1-c1ccc(-c2cccc(S(C)(=O)=O)c2)cc1-n1nncc1-c1ccc2c(c1)OC(F)(F)O2"
  cat: "not fulfilled"
- query_smiles: "Cn1nc(C(F)(F)C#N)cc1-c1ccc(-c2cccc(S(C)(=O)=O)c2)cc1-n1nncc1-c1ccc(OC(F)(F)F)cc1"
  cat: "not fulfilled"
- query_smiles: "Cn1nc(C(=O)NC(C)(C)C#N)cc1-c1ccc(-c2cccc(S(C)(=O)=O)c2)cc1-n1nncc1-c1ccc(OC(F)(F)F)cc1"
  cat: "not fulfilled"
- query_smiles: "Cn1nc(C(F)(F)C(N)=O)cc1-c1ccc(-c2cccc(S(C)(=O)=O)c2)cc1-n1nncc1-c1ccc(Cl)cc1Cl"
  cat: "not fulfilled"
- query_smiles: "Cc1nc(-c2ccc3c(c2)OC(F)(F)O3)c(-c2cc(-c3cc(F)c(CO)c(S(C)(=O)=O)c3)ccc2-c2cc(C(C)(C)c3nnco3)nn2C)o1"
  cat: "fulfilled"
- query_smiles: "Cn1nc(C(F)(F)C(C)(C)O)cc1-c1ccc(-c2cccc(S(C)(=O)=O)c2)cc1-n1nncc1-c1ccc2c(c1)OC(F)(F)O2"
  cat: "not fulfilled"
